Cited source: patent US4186136A

Readings of LD50 at 168 h for the listed molecules
# TEST METHOD NOTES: Acute toxicity, oral, mouse (LD 50, Miller and Tainter)
# Assay type: in vivo
# EXPERIMENTAL CONDITIONS: in vivo, po, death rate checked for seven days, read-out: 50% lethal dose (LD 50) (converted)

Please review the following examples before continuing.
1) O=C(CCCN1CCCCC1)c1csc2ccccc12 [Compound 14]: 850 mg/kg
2) CN(C)CCCC(=O)c1cc2ccccc2s1 [Compound 4]: 950 mg/kg
3) O=C(CCCN1CCOCC1)c1csc2ccccc12 [Compound 17]: 1000 mg/kg
4) CCCN(CCC)CCCC(=O)c1csc2ccccc12 [Compound 11]: 1100 mg/kg
5) O=C(CCCN1CCCC1)c1csc2ccccc12 [Compound 13]: 760 mg/kg

Exercise: Item under review: O=C(CCCN1CCCCC1)c1cc2ccccc2s1 [Compound 5] . Reported LD50 at 168 h?
Solution: 1300 mg/kg

Exercise: What LD50 at 168 h value was documented for this molecule, O=C(CCCN1CCCCCC1)c1csc2ccccc12 [Compound 15] ?
Solution: 950 mg/kg

Exercise: Entry under review: CCN(CC)CCCC(=O)c1csc2ccccc12 [Compound 9] . Reported LD50 at 168 h?
Solution: > 1200 mg/kg

Exercise: # query: LD50 at 168 h of entry CC(C)N(CCCC(=O)c1csc2ccccc12)C(C)C [Compound 12]
Solution: 500 mg/kg

Exercise: Which LD50 at 168 h is reported for this molecule? O=C(CCCN1CCOCC1)c1cc2ccccc2s1 [Compound 1]
Solution: 1200 mg/kg
